Experiment: Intrinsic clearance human liver microsomes in the presence of NADPH
Type: ADME, Microsome
Settings: read-out: CLH
Measured endpoint: microsomal CLint (µL/min/mg)
Answers are plain numbers, in µL/min/mg.

Molecule: CCN(CC)Cc1cc(Nc2ccnc3cc(Cl)ccc23)ccc1O [AMODIAQUINE]
microsomal CLint (µL/min/mg): 431

Attention now turns to another entry.
Determine its reported microsomal CLint: Cc1cc(NCc2cc(Nc3ccnc4cc(Cl)ccc34)ccc2F)nc(N2CCN(C)CC2)n1
82.8

###

Test: in vitro
Conditions: hamster, CHO cells versus Plasmodium falciparum NF54
Description: Selectivity index, ratio of IC50 for CHO cells to IC50 for antiplasmodial activity against chloroquine-sensitive Plasmodium falciparum NF54
Measured endpoint: selectivity ratio

// below: answered compounds
Molecular string: Cc1cc(N2CCOCC2)nc(NCc2cc(Nc3ccnc4cc(Cl)ccc34)ccc2F)n1
selectivity ratio: 380
--
Molecular string: Cc1cc(N2CCSCC2)nc(NCc2cc(Nc3ccnc4cc(Cl)ccc34)ccc2F)n1
selectivity ratio: 362
--
Molecular string: Cc1cc(NCc2cc(Nc3ccnc4cc(Cl)ccc34)ccc2F)nc(N2CCN(c3ccccc3)CC2)n1
selectivity ratio: 981
--
Molecular string: Cc1cc(N2CCN(C)CC2)nc(NCc2cc(Nc3ccnc4cc(Cl)ccc34)ccc2F)n1
selectivity ratio: 3800
--
Molecular string: Cc1cc(N2CCCCC2)nc(NCc2cc(Nc3ccnc4cc(Cl)ccc34)ccc2F)n1
selectivity ratio: 237
--
Molecular string: Cc1cc(NCc2cc(Nc3ccnc4cc(Cl)ccc34)ccc2F)nc(N2CCSCC2)n1
selectivity ratio: 664
--
Molecular string: Cc1cc(NCc2cc(Nc3ccnc4cc(Cl)ccc34)ccc2F)nc(N2CCOCC2)n1
selectivity ratio: 544
--
Molecular string: CCN1CCN(c2cc(C)nc(NCc3cc(Nc4ccnc5cc(Cl)ccc45)ccc3F)n2)CC1
selectivity ratio: 2780

Answer for every listed entry: what is its selectivity ratio? The entries follow.
1. Cc1cc(NCc2cc(Nc3ccnc4cc(Cl)ccc34)ccc2F)nc(N2CCCC2)n1
2. NCc1cc(Nc2ccnc3cc(Cl)ccc23)ccc1F
3. Cc1cc(N2CCN(c3ccccc3)CC2)nc(NCc2cc(Nc3ccnc4cc(Cl)ccc34)ccc2F)n1

1: 306; 2: 680; 3: 251
